system: LNCaP; assay: Cytotoxicity against human LNCAP cells after 3 days by MTT assay; format: functional, cell-based; conditions: 72 h
Readout: IC50 (µM)

>>> print(df.to_string())
                               entry_smiles  unit  test_value
0  CC[C@H]1CN2CCc3cc(OC)c(OC)cc3[C@@H]2C[C@@H]1C[C@@H]1c2cc(OC)c(OC)cc2CCN1C(=S)SCC(=O)Nc1ccc(Br)cc1    µM        5.28
1  CC[C@H]1CN2CCc3cc(OC)c(OC)cc3[C@@H]2C[C@@H]1C[C@@H]1c2cc(OC)c(OC)cc2CCN1C(=S)SCCCCC(=O)OC    µM        4.79
2  CC[C@H]1CN2CCc3cc(OC)c(OC)cc3[C@@H]2C[C@@H]1C[C@H]1NCCc2cc(OC)c(OC)cc21    µM       0.037

====

Reported pIC50 is given for each of the following molecules.
system: DU-145; experiment: Cytotoxicity against human DU145 cells after 7 days by MTT assay; type: functional, cell-based; details: DU-145, 168 h
pIC50: −log10 of the molar value.
Readout: pIC50

>>> print(df.to_string())
                               entry_smiles  readout  test_value
0  CCOC(=O)c1ccc(NC(=O)CSC(=S)N2CCc3cc(OC)c(OC)cc3[C@H]2C[C@H]2C[C@H]3c4cc(OC)c(OC)cc4CCN3C[C@@H]2CC)cc1    pIC50        5.61
1  CC[C@H]1CN2CCc3cc(OC)c(OC)cc3[C@@H]2C[C@@H]1C[C@@H]1c2cc(OC)c(OC)cc2CCN1C(=S)SCc1ccccc1    pIC50        5.70
2  CC[C@H]1CN2CCc3cc(OC)c(OC)cc3[C@@H]2C[C@@H]1C[C@@H]1c2cc(OC)c(OC)cc2CCN1C(=S)SCC(=O)Nc1ccc(Br)cc1    pIC50        5.80

====

Reported IC50 is given for each of the following compounds.
test system: LNCaP; assay: Cytotoxicity against human LNCAP cells after 7 days by MTT assay; type: functional, cell-based; settings: 168 h
Readout: IC50

>>> print(df.to_string())
                               entry_smiles  measured_on  readout  test_value
0  CCCCCCSC(=S)N1CCc2cc(OC)c(OC)cc2[C@H]1C[C@H]1C[C@H]2c3cc(OC)c(OC)cc3CCN2C[C@@H]1CC        LNCaP     IC50     1590 nM
1  CC[C@H]1CN2CCc3cc(OC)c(OC)cc3[C@@H]2C[C@@H]1C[C@@H]1c2cc(OC)c(OC)cc2CCN1C(=S)SCCC(N)=O        LNCaP     IC50     3390 nM
2  CC[C@H]1CN2CCc3cc(OC)c(OC)cc3[C@@H]2C[C@@H]1C[C@@H]1c2cc(OC)c(OC)cc2CCN1C(=S)SCC(=O)Nc1ccc(Br)cc1        LNCaP     IC50     1700 nM

====

test system: LNCaP; assay: Cytotoxicity against human LNCAP cells after 3 days by MTT assay; type: functional, cell-based; settings: 72 h
Readout: IC50

                               entry_smiles  measured_on  readout  test_value
0  CC[C@H]1CN2CCc3cc(OC)c(OC)cc3[C@@H]2C[C@@H]1C[C@@H]1c2cc(OC)c(OC)cc2CCN1C(=S)SCCC(N)=O        LNCaP     IC50     9.22 µM
1  CC[C@H]1CN2CCc3cc(OC)c(OC)cc3[C@@H]2C[C@@H]1C[C@@H]1c2cc(OC)c(OC)cc2CCN1C(=S)SCC(=O)c1ccc(Cl)cc1        LNCaP     IC50     5.72 µM
2  CCOC(=O)c1ccc(NC(=O)CSC(=S)N2CCc3cc(OC)c(OC)cc3[C@H]2C[C@H]2C[C@H]3c4cc(OC)c(OC)cc4CCN3C[C@@H]2CC)cc1        LNCaP     IC50     4.67 µM
3  CC[C@H]1CN2CCc3cc(OC)c(OC)cc3[C@@H]2C[C@@H]1C[C@@H]1c2cc(OC)c(OC)cc2CCN1C(=S)SCCN1C(=O)c2ccccc2C1=O        LNCaP     IC50     3.22 µM
4  CCCCCCSC(=S)N1CCc2cc(OC)c(OC)cc2[C@H]1C[C@H]1C[C@H]2c3cc(OC)c(OC)cc3CCN2C[C@@H]1CC        LNCaP     IC50     3.66 µM
5  CC[C@H]1CN2CCc3cc(OC)c(OC)cc3[C@@H]2C[C@@H]1C[C@@H]1c2cc(OC)c(OC)cc2CCN1C(=S)S        LNCaP     IC50    0.565 µM
